Molecular target: Muscarinic acetylcholine receptor M5 (Homo sapiens)
Sequence (P08912 whole entry): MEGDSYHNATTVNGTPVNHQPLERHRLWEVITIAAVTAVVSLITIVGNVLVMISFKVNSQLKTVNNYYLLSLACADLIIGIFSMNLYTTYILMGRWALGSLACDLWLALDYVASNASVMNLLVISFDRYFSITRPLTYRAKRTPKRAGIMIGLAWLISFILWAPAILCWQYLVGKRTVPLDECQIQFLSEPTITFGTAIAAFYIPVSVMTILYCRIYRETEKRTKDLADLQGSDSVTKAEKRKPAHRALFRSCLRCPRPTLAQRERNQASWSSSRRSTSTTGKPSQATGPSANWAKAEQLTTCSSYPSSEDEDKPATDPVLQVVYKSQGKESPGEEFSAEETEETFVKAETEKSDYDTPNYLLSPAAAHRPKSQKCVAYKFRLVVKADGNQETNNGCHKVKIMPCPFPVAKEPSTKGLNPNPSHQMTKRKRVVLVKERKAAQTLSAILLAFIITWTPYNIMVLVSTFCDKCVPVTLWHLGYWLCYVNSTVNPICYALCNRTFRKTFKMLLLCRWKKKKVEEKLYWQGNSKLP
Test: Displacement of [3H]-NMS from human muscarinic M5 receptor expressed in CHO-K9 cells after 3 hrs by microbeta2 scintillation counting method
Format: cell-based
Catalogue of compounds with associated pKi
Lab note: report pKi as minus log10 of the concentration in molar units, number only.

CC(=O)N[C@@H](C)C(=O)N[C@@H](C)C(=O)NCCCCC1CCN(CC(=O)N2c3ccccc3NC(=O)c3ccccc32)CC1 = 5.87
CC(=O)N[C@@H](CCCCN)C(=O)N[C@@H](CCCNC(=N)N)C(=O)NCCN1CCN(CCCCC2CCN(CC(=O)N3c4ccccc4NC(=O)c4ccccc43)CC2)CC1 = 6.95
CC(=O)N[C@@H](CCC(N)=O)C(=O)N[C@@H](CC(C)C)C(=O)NCCN1CCN(CCCCC2CCN(CC(=O)N3c4ccccc4NC(=O)c4ccccc43)CC2)CC1 = 6.53

Would you kindly look at the next entry?
## Task Given the compound CCC(=O)NCCCCC1CCN(CC(=O)N2c3ccccc3NC(=O)c3ccccc32)CC1 , what is its reported pKi?
## Result 5.15
